EXPERIMENTAL_SYSTEM: α1 adrenoceptor
TEST_DETAILS: displacement of ^3 H-prazosin specifically bound in rat brain homogenate (radioligand binding)
COND: ^3 H Prazosin binding, Ki calculated from IC50, read-out: K1 (nM) ^3 H Prazosin
Structures can show the parent of a compound that is named as a salt.
The following molecules are listed with their measured Ki values.
Express the result in nM but write the number alone.

Take a look at these entries with their results.
CN1CCc2c(c(-c3ccc(F)cc3)nn2Cc2ccc(Cl)cc2)C1 | 20.8
c1ccc(Cn2nc(-c3ccccc3)c3c2CCNC3)cc1 [Example 117, hydrochloride] | 38.6
Fc1ccc(-c2nn(CCc3ccccc3)c3c2CNCC3)cc1 | 40.3

Let us examine a further case.
// molecule `CCCCn1nc(-c2ccc(F)cc2)c2c1CCNC2` , assay α1 adrenoceptor, Ki value: 17.3
